system: P388 leukemia ip, CD2F1 mice, survival T/C; test: NCI In Vivo Anticancer Drug Screen. Data for tumor model P388 Leukemia (intraperitoneal) in CD2F1 (CDF1) mice; settings: endpoint: median survival time; dose: 120.0 mg/kg/injection; schedule: Q01DX005 (ip); vehicle: saline with Tween-80; higher = longer survival
Inconclusive results and toxic doses are left out.
Readout Label: T/C

In the examples that follow, each entry is paired with its recorded T/C.
{"columns": ["Compound", "Obs Value"],
 "data": [
  ["Cc1cc(=O)oc2ccc(C(=O)/C=C/N(C)C)c(O)c12", "92 % of control"],
  ["CCc1c(O)c(C#N)c2[nH]c3cc(C)c(C)cc3n2c1=O", "102 % of control"],
  ["CC(=O)Nc1ccc(S(=O)(=O)Nc2c(N)[nH]c(=S)[nH]c2=O)cc1", "98 % of control"],
  ["O=C(CCC(=O)Nc1ccccc1[N+](=O)[O-])CC(=O)c1ccc(Br)cc1", "106 % of control"],
  ["COC(=O)/C=C(\\CCl)N=[N+]=[N-]", "109 % of control"],
  ["CC1(C)OC2OC(C3COS(=O)O3)C(Cl)C2O1 (centres undefined)", "113 % of control"],
  ["Cc1nn(C(=O)c2ccccn2)c(-c2ccccc2)c1N=Nc1ccc(S(=O)(=O)Nc2ncccn2)cc1", "100 % of control"],
  ["CCOC(=O)c1cn(C(=O)CCl)c2ccccc2c1=O", "100 % of control"]
]}

[ask] Entry under review: C=CCCN=C(SC)SC . Reported T/C?
[reply] 114 % of control

[ask] Entry under review: CCn1c2ccc(N)cc2c2c3ncc4cccn4c3ccc21 . Reported T/C?
[reply] 87 % of control

[ask] Entry under review: NP1(Oc2ccc(F)cc2)=NP(N)(Oc2ccc(F)cc2)=NP(Oc2ccc(F)cc2)(Oc2ccc(F)cc2)=N1 (centres undefined) . Reported T/C?
[reply] 96 % of control

[ask] Entry under review: COC(=O)c1cc(-c2ccc(C)cc2)c2c(=O)n(-c3ccccc3)[nH]c2n1 . Reported T/C?
[reply] 100 % of control

[ask] Entry under review: O=[N+]([O-])c1ccc(-c2cn(-c3ccc(Cl)cc3)cn2)cc1 . Reported T/C?
[reply] 88 % of control

[ask] Entry under review: Cc1cccc(C)c1NC(=O)CCC(=O)CC(=O)c1ccncc1 . Reported T/C?
[reply] 105 % of control

---

system: P388 leukemia ip, CD2F1 mice, survival T/C; test: NCI In Vivo Anticancer Drug Screen. Data for tumor model P388 Leukemia (intraperitoneal) in CD2F1 (CDF1) mice; details: endpoint: median survival time; dose: 100.0 mg/kg/injection; schedule: Q04DX003 (ip); vehicle: saline; higher = longer survival
Inconclusive results and toxic doses are left out.
Readout Label: T/C

In the examples that follow, each entry is paired with its recorded T/C.
{"columns": ["Compound", "T/C"],
 "data": [
  ["COc1ccc2c(c1O)-c1c(O)c(OC)cc3c1[C@H](C2)[N+](C)(C)CC3", "113 % of control"],
  ["CN(C)C(C#C[Si](C)(C)C)CO (configuration not stated)", "104 % of control"],
  ["CC(=O)N1CCCC2=C1CCCCCC2", "117 % of control"],
  ["CCc1nc(NCCCCCCCCNc2nc(C)c(-c3ccccc3O)c(CC)n2)nc(C)c1-c1ccccc1O", "93 % of control"],
  ["O=C(Cc1ccccn1)c1cccnc1", "94 % of control"],
  ["Cc1ccc(Cl)cc1S", "95 % of control"]
]}

[ask] Entry under review: COC(=O)C1(N)CCCC1 . Reported T/C?
[reply] 90 % of control
